The reported measurements were obtained from patent US9513294B2.

# Lookup of reported λmax Absorp. keyed by entry
- protocol-text: Absorbance and fluorescence emission spectra (SpectraMax M2)
- Assay type: physicochemical
- condition-notes: BDCCA library, Table 4
Record the value in nm, omitting the unit from your answer.

{"columns": ["molecule", "result-number"],
 "data": [
  ["CCCCCCCc1cn(-c2ccc3n2[B-](F)(F)[N+]2=C(N4CCCCC4)C=CC2=C3c2ccc(NC(=O)CCl)cc2)nn1", 466],
  ["CN(Cc1ccccc1)Cc1cn(-c2ccc3n2[B-](F)(F)[N+]2=C(N4CCCCC4)C=CC2=C3c2ccc(NC(=O)CCl)cc2)nn1", 465],
  ["O=C(CCl)Nc1ccc(C2=C3C=CC(N4CCCCC4)=[N+]3[B-](F)(F)n3c2ccc3-n2cc(-c3ccc(OC(F)(F)F)cc3)nn2)cc1", 462]
]}

Exercise: What λmax Absorp. value was documented for this molecule, CCCCCC(O)c1cn(-c2ccc3n2[B-](F)(F)[N+]2=C(N4CCCCC4)C=CC2=C3c2ccc(NC(=O)CCl)cc2)nn1 (racemic) ?
Solution: 467

Exercise: What about this molecule? O=C(CCl)Nc1ccc(C2=C3C=CC(N4CCCCC4)=[N+]3[B-](F)(F)n3c2ccc3-n2cc(CCc3ccccc3)nn2)cc1
Solution: 466

Exercise: What about this molecule? O=C(CCl)Nc1ccc(C2=C3C=CC(N4CCCCC4)=[N+]3[B-](F)(F)n3c2ccc3-n2cc(C3(O)CCCC3)nn2)cc1
Solution: 468

Exercise: What about this molecule? CCCCCc1ccc(-c2cn(-c3ccc4n3[B-](F)(F)[N+]3=C(N5CCCCC5)C=CC3=C4c3ccc(NC(=O)CCl)cc3)nn2)cc1
Solution: 464

Exercise: What about this molecule? Cc1ccc(-c2cn(-c3ccc4n3[B-](F)(F)[N+]3=C(N5CCCCC5)C=CC3=C4c3ccc(NC(=O)CCl)cc3)nn2)cc1
Solution: 463

Exercise: What about this molecule? CC(C)(C)c1ccc(-c2cn(-c3ccc4n3[B-](F)(F)[N+]3=C(N5CCCCC5)C=CC3=C4c3ccc(NC(=O)CCl)cc3)nn2)cc1
Solution: 464

Exercise: What about this molecule? O=C(CCl)Nc1ccc(C2=C3C=CC(N4CCCCC4)=[N+]3[B-](F)(F)n3c2ccc3-n2cc(-c3ccc(F)c(F)c3)nn2)cc1
Solution: 462

Exercise: What about this molecule? CCCCCCCCc1cn(-c2ccc3n2[B-](F)(F)[N+]2=C(N4CCCCC4)C=CC2=C3c2ccc(NC(=O)CCl)cc2)nn1
Solution: 466

Exercise: What about this molecule? CCCCCCc1cn(-c2ccc3n2[B-](F)(F)[N+]2=C(N4CCCCC4)C=CC2=C3c2ccc(NC(=O)CCl)cc2)nn1
Solution: 466

Exercise: What about this molecule? CCCc1cn(-c2ccc3n2[B-](F)(F)[N+]2=C(N4CCCCC4)C=CC2=C3c2ccc(NC(=O)CCl)cc2)nn1
Solution: 466

Exercise: What about this molecule? Cc1cccc(-c2cn(-c3ccc4n3[B-](F)(F)[N+]3=C(N5CCCCC5)C=CC3=C4c3ccc(NC(=O)CCl)cc3)nn2)c1
Solution: 463

---

- protocol-text: Quantum yield measurements versus Acridine Yellow in EtOH
- Type: physicochemical
- condition-notes: MKCA compound library; quantum yield
observation-type: φ (%)

{"columns": ["input-smiles", "φ (%)"],
 "data": [
  ["O=C(CCl)Nc1ccc(C2=C3C=CC(N4CCc5ccccc5C4)=[N+]3[B-](F)(F)n3c2ccc3-n2cc(CO)nn2)cc1", "2.61%"],
  ["Cc1ccccc1CNC1=[N+]2C(=C(c3ccc(NC(=O)CCl)cc3)c3ccc(-n4cc(C5CCCC5)nn4)n3[B-]2(F)F)C=C1", "31.53%"],
  ["O=C(CCl)Nc1ccc(C2=C3C=CC(N4CCCC4)=[N+]3[B-](F)(F)n3c2ccc3-n2cc(C3CC3)nn2)cc1", "3.35%"],
  ["CCOc1ccccc1CNC1=[N+]2C(=C(c3ccc(NC(=O)CCl)cc3)c3ccc(-n4cc(CCc5ccccc5)nn4)n3[B-]2(F)F)C=C1", "36.82%"],
  ["CC(C)Cc1cn(-c2ccc3n2[B-](F)(F)[N+]2=C(N(C)Cc4ccccc4)C=CC2=C3c2ccc(NC(=O)CCl)cc2)nn1", "4.97%"]
]}

Now take the following molecule into account.
Exercise: What φ (%) value was documented for this molecule, COc1ccc(OC)c(CNC2=[N+]3C(=C(c4ccc(NC(=O)CCl)cc4)c4ccc(-n5cc(CO)nn5)n4[B-]3(F)F)C=C2)c1 ?
Solution: 19.42%

---

- protocol-text: Absorbance and fluorescence emission spectra (SpectraMax M2)
- Type: physicochemical
- condition-notes: MKCA compound library; absorbance maximum
observation-type: λmax Absorp. (nm)
Record the value in nm, omitting the unit from your answer.

Exercise: What λmax Absorp. (nm) value was documented for this compound, CCCc1cn(-c2ccc3n2[B-](F)(F)[N+]2=C(N4CCc5ccccc5C4)C=CC2=C3c2ccc(NC(=O)CCl)cc2)nn1 ?
Solution: 469

Exercise: What about this compound? CN(Cc1ccccc1)C1=[N+]2C(=C(c3ccc(NC(=O)CCl)cc3)c3ccc(-n4cc(CC5CCCCC5)nn4)n3[B-]2(F)F)C=C1
Solution: 465

---

- protocol-text: Absorbance and fluorescence emission spectra (SpectraMax M2)
- Assay type: physicochemical
- condition-notes: BDC library, Table 2
observation-type: λmax Emission (nm)
Record the value in nm, omitting the unit from your answer.

{"columns": ["input-smiles", "reading-unit", "λmax Emission"],
 "data": [
  ["CCCCCCCc1cn(-c2ccc3n2[B-](F)(F)[N+]2=C(N4CCCCC4)C=CC2=C3c2ccc(N)cc2)nn1", "nm", 577],
  ["CN(C)Cc1cn(-c2ccc3n2[B-](F)(F)[N+]2=C(N4CCCCC4)C=CC2=C3c2ccc(N)cc2)nn1", "nm", 587],
  ["Nc1ccc(C2=C3C=CC(N4CCCCC4)=[N+]3[B-](F)(F)n3c2ccc3-n2cc(-c3ccc(F)cc3F)nn2)cc1", "nm", 585]
]}

Exercise: What λmax Emission value was documented for this molecule, CCc1ccc(-c2cn(-c3ccc4n3[B-](F)(F)[N+]3=C(N5CCCCC5)C=CC3=C4c3ccc(N)cc3)nn2)cc1 ?
Solution: 585

Exercise: What about this molecule? CC(C)(C)c1ccc(-c2cn(-c3ccc4n3[B-](F)(F)[N+]3=C(N5CCCCC5)C=CC3=C4c3ccc(N)cc3)nn2)cc1
Solution: 552

Exercise: What about this molecule? Nc1ccc(C2=C3C=CC(N4CCCCC4)=[N+]3[B-](F)(F)n3c2ccc3-n2cc(-c3ccc(-c4ccccc4)cc3)nn2)cc1
Solution: 570

Exercise: What about this molecule? Nc1ccc(C2=C3C=CC(N4CCCCC4)=[N+]3[B-](F)(F)n3c2ccc3-n2cc(-c3ccccc3)nn2)cc1
Solution: 581

---

# Lookup of reported φ (%) keyed by entry
- protocol-text: Quantum yield measurements versus Acridine Yellow in EtOH
- Format: physicochemical
- condition-notes: MKAC compound library; quantum yield
Record the value in %, omitting the unit from your answer.

These solved cases illustrate the format of a correct answer.
{"columns": ["compound", "φ (%)"],
 "data": [
  ["COc1ccc(OC)c(CNC2=[N+]3C(=C(c4ccc(NC(C)=O)cc4)c4ccc(-n5cc(CCc6ccccc6)nn5)n4[B-]3(F)F)C=C2)c1", 14.0],
  ["CC(=O)Nc1ccc(C2=C3C=CC(N4CCCC4)=[N+]3[B-](F)(F)n3c2ccc3-n2cc(CC(C)C)nn2)cc1", 1.83],
  ["CC(=O)Nc1ccc(C2=C3C=CC(NCc4ccccc4C)=[N+]3[B-](F)(F)n3c2ccc3-n2cc(CCc3ccccc3)nn2)cc1", 23.26],
  ["CC(=O)Nc1ccc(C2=C3C=CC(NCc4ccccc4C)=[N+]3[B-](F)(F)n3c2ccc3-n2cc(CC(C)C)nn2)cc1", 20.12],
  ["COc1ccc(OC)c(CNC2=[N+]3C(=C(c4ccc(NC(C)=O)cc4)c4ccc(-n5cc(CO)nn5)n4[B-]3(F)F)C=C2)c1", 15.37]
]}

Exercise: What φ (%) value was documented for this compound, CCOc1ccccc1CNC1=[N+]2C(=C(c3ccc(NC(C)=O)cc3)c3ccc(-n4cc(CC5CCCCC5)nn4)n3[B-]2(F)F)C=C1 ?
Solution: 25.32

Exercise: What about this compound? CC(=O)Nc1ccc(C2=C3C=CC(NCc4cc(F)cc(F)c4)=[N+]3[B-](F)(F)n3c2ccc3-n2cc(CC(C)C)nn2)cc1
Solution: 18.26

Exercise: What about this compound? CC(=O)Nc1ccc(C2=C3C=CC(NCc4cc(F)cc(F)c4)=[N+]3[B-](F)(F)n3c2ccc3-n2cc(CC3CCCCC3)nn2)cc1
Solution: 16.81

Exercise: What about this compound? CC(=O)Nc1ccc(C2=C3C=CC(N(C)Cc4ccccc4)=[N+]3[B-](F)(F)n3c2ccc3-n2cc(CC(C)C)nn2)cc1
Solution: 3.48

Exercise: What about this compound? CC(=O)Nc1ccc(C2=C3C=CC(N4CC(C)OC(C)C4)=[N+]3[B-](F)(F)n3c2ccc3-n2cc(CC3CCCCC3)nn2)cc1 (stereo not shown)
Solution: 4.98

Exercise: What about this compound? CC(=O)Nc1ccc(C2=C3C=CC(N4CCc5ccccc5C4)=[N+]3[B-](F)(F)n3c2ccc3-n2cc(CO)nn2)cc1
Solution: 1.44

Exercise: What about this compound? CC(=O)Nc1ccc(C2=C3C=CC(NCc4cc(F)cc(F)c4)=[N+]3[B-](F)(F)n3c2ccc3-n2cc(C3CC3)nn2)cc1
Solution: 26.84

Exercise: What about this compound? COc1ccc(OC)c(CNC2=[N+]3C(=C(c4ccc(NC(C)=O)cc4)c4ccc(-n5cc(CC(C)C)nn5)n4[B-]3(F)F)C=C2)c1
Solution: 13.79
